Biological target: phosphorylated EGFR (pEGFR) (Homo sapiens)
Construct: performed to measure phosphorylated EGFR levels using A431 cells (10% FBS); endogenous in cells
Sequence (P00533 25-1210): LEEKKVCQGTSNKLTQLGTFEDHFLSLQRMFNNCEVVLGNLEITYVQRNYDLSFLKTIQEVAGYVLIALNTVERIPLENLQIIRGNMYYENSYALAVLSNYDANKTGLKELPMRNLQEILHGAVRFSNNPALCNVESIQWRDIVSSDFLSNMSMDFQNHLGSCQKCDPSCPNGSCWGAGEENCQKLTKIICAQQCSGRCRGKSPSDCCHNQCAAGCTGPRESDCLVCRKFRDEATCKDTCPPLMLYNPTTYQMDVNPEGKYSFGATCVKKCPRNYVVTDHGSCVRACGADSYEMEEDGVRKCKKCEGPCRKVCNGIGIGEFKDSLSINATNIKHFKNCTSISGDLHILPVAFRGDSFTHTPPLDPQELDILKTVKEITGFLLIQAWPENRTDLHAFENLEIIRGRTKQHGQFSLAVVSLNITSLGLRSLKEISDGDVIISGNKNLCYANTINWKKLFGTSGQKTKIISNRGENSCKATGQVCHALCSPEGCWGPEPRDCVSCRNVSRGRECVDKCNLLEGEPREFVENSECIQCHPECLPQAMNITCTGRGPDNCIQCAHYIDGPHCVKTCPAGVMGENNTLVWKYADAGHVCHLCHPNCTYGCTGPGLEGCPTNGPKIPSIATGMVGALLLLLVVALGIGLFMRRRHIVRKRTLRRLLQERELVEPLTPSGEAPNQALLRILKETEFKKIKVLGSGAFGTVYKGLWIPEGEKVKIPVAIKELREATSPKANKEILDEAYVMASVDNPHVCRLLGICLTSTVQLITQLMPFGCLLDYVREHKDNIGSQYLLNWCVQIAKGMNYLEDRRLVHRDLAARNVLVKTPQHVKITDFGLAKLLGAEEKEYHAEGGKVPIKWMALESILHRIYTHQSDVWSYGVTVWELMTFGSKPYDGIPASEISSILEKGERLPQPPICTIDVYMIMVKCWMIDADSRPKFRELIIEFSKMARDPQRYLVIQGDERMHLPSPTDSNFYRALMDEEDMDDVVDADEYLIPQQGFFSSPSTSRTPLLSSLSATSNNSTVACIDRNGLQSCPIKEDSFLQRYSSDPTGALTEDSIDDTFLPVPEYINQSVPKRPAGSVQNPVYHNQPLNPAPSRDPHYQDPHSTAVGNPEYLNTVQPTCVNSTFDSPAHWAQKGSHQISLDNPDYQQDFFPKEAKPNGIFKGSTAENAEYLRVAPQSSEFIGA
Experiment: Detection of phosphorylated EGFR (pEGFR) in EGF-stimulated A431 cells
Settings: A431 cells (10% FBS), 4 hours incubation, EGF 30 ng/mL 10 minutes, AlphaLISA
Procedure: Enzyme-linked immunosorbent assays (ELISA) were performed to measure phosphorylated EGFR levels using A431 cells (10% FBS). A431 (1.0*10^4 cells/40 μl/well) cells were seeded in 384 well. […] Acceptor mix (PerkinElmer, cat #ALSU-PEGFR-A50K) was prepared just before use and 5 μL was dispensed to all the wells, followed by a 1.5-2 h incubation at room temperature in dark. […] Plates were read on the Envision (PerkinElmer) using standard AlphaLISA settings. […]
// classify: if (IC50 < 1000 nM) 1.0 else 0.0

Study these solved cases before continuing.
| MOLECULE | TARGET OR TEST SYSTEM | GROUP |
| --- | --- | --- |
| C=C1CCN(c2ccc3ncnc(Nc4ccc(Cc5ccn6ncnc6c5)c(C)c4)c3c2)C1=O [Compound 16] | phosphorylated EGFR (pEGFR) (Homo sapiens) | 1.0 |
| CCn1cnc2cc(Oc3ccc(Nc4ncnc5ccc(N6CC/C(=C\CN(C)C)C6=O)nc45)cc3C)ccc21 [Compound 65] | phosphorylated EGFR (pEGFR) (Homo sapiens) | 0.0 |
| [2H]C([2H])([2H])n1cnc2cc(Oc3ccc(Nc4ncnc5ccc(N6CC/C(=C\CN(C)C)C6=O)nc45)cc3C)ccc21 [Compound 119] | phosphorylated EGFR (pEGFR) (Homo sapiens) | 1.0 |
| Cc1cc(Nc2ncnc3ccc(N4CC/C(=C\CCN(C)C)C4=O)cc23)ccc1Oc1ccc2c(c1)ncn2C [Compound 44] | phosphorylated EGFR (pEGFR) (Homo sapiens) | 0.0 |
| Cc1cc(Nc2ncnc3ccc(N4CC/C(=C\[C@H]5CCCN5C)C4=O)nc23)ccc1Oc1ccn2ncnc2c1 [Compound 90] | phosphorylated EGFR (pEGFR) (Homo sapiens) | 0.0 |

Req: Is it true that IC50 reported for Cc1cc(Nc2ncnc3cnc(N4CC/C(=C\CN(C)C)C4=O)cc23)ccc1Oc1cccnc1 [Compound 80] is less than 1000 nM?
Resp: 1.0

====

Target: phosphorylated ERBB2 (pERBB2) (Homo sapiens)
Construct: endogenous in cells
Sequence (P04626 23-1255): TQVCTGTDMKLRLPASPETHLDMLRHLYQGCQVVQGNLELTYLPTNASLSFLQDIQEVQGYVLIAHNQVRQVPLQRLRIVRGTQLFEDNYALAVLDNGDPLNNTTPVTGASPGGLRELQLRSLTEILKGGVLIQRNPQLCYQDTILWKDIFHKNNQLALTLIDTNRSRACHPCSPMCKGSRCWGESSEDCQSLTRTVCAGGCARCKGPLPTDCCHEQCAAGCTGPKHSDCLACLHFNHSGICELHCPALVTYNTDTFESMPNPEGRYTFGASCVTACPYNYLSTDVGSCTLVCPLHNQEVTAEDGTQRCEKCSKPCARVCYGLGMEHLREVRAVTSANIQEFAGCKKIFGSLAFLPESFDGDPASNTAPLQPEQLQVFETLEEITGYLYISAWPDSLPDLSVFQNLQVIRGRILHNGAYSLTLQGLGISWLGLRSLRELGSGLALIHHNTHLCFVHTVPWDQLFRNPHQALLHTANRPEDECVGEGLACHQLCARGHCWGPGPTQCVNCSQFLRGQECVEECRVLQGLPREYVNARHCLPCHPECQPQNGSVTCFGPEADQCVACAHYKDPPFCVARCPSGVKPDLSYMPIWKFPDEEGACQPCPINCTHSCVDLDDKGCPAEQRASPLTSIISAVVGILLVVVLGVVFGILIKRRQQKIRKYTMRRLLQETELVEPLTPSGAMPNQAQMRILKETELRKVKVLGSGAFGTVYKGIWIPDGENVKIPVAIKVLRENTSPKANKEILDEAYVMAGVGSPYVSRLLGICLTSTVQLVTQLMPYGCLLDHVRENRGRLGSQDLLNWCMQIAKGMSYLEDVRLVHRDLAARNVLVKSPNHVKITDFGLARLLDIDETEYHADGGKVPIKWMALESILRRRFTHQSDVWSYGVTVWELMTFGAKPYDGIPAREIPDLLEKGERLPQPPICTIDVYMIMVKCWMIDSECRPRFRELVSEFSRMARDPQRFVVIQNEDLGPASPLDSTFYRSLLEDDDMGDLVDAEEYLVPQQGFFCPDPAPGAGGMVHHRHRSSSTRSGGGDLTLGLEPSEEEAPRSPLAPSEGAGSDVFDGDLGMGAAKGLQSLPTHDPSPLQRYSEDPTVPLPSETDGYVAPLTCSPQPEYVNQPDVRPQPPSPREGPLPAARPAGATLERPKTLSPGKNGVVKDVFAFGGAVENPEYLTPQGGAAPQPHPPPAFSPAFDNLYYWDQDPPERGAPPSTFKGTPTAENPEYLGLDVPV
Assay: Detection of phosphorylated ERBB2 (pERBB2) by ELISA in BT-474 cells
Details: four hours incubation
// classify: if (IC50 < 30 nM) class 1 else class 0

Study these solved cases before continuing.
| MOLECULE | TARGET OR TEST SYSTEM | GROUP |
| --- | --- | --- |
| Cc1cc(Nc2ncnc3ccc(N4C(=O)/C(=C\CN(C)C)C5CC54)nc23)ccc1Oc1ccn2ncnc2c1 (stereo not shown) | phosphorylated ERBB2 (pERBB2) (Homo sapiens) | class 1 |
| Cc1cc(Nc2ncnc3ccc(N4CC/C(=C\CN(C)C)C4=O)nc23)ccc1Oc1ccc2scnc2c1 | phosphorylated ERBB2 (pERBB2) (Homo sapiens) | class 0 |
| C=C1CCN(c2ccc3ncnc(Nc4ccc(Cc5ccc6c(c5)ncn6C)c(C)c4)c3c2)C1=O | phosphorylated ERBB2 (pERBB2) (Homo sapiens) | class 0 |
| Cc1cc(Nc2ncnc3ccc(N4CC/C(=C\[C@@H]5CCCN5C)C4=O)nc23)ccc1Oc1ccn2ncnc2c1 | phosphorylated ERBB2 (pERBB2) (Homo sapiens) | class 1 |

Req: Is it true that IC50 reported for Cc1cc(Nc2ncnc3cnc(N4CC/C(=C\CN(C)C)C4=O)cc23)ccc1Oc1ccn2nnnc2c1 is less than 30 nM?
Resp: class 1

Req: Is it true that IC50 reported for Cc1cc(Nc2ncnc3ccc(N4CC/C(=C\CN(C)C)C4=O)nc23)c(F)cc1Oc1ccc2c(c1)ncn2C is less than 30 nM?
Resp: class 0

Req: Is it true that IC50 reported for Cc1cc(Nc2ncnc3ccc(N4CC(C)C(=CCN(C)C)C4=O)nc23)ccc1Oc1ccn2ncnc2c1 (single isomer, unassigned) [Example S98, Enantiomer #1] is less than 30 nM?
Resp: class 1
